Test system: HL-60(TB) leukemia
measurement.protocol: NCI-60 one-dose screen, 48 h
cond: 10 µM unless noted
The panel holds about 83,000 compounds, 20% with a hit somewhere; the sample as a whole holds those more often. Activity calls are given as the source filed them. How the source made its calls: active means growth percent below 10; inactive means the rest.
Classes to choose from: active, inactive

Consider the worked cases shown below.
What is the recorded call for this compound in the test? "CCN(CC)CCCOc1cccc2c1C(=O)c1cccc(OCCCN(CC)CC)c1C2=O"
inactive

What is the recorded call for this compound in the test? "Nc1c(C(=O)Nc2ccccc2)sc2nc3c(cc12)CN(CCc1ccccc1)CC3"
inactive

What is the recorded call for this compound in the test? "COc1cccc(Oc2ccccc2NC(=O)CNC(=O)c2cccc3ccccc23)c1"
active

What is the recorded call for this compound in the test? "C#CCCCCCCC[C@@H]1OC(=O)[C@H]([C@@H](C)CC)NC(=O)[C@H]([C@@H](C)CC)NC(=O)CC(=O)[C@@H]1C"
inactive

What is the recorded call for this compound in the test? "CCO/C=C1\SC(=S)N(c2cccc(C)c2)C1=O"
inactive

Please look at the following compound next.
What is the recorded call for this compound in the test? "O=C(/C=C/c1ccc(Oc2ccc(Br)cc2)cc1)c1ccc(Br)cc1"
inactive

* * *

Tested on: HT29 colon
measurement.protocol: NCI-60 one-dose screen, 48 h (100 = growth as untreated, 0 = no growth, -100 = all killed)
cond: 10 µM unless noted
About 83,000 compounds went through this panel and 20% of them were active in at least one assay; those are over-represented in the sample as a whole.
// reported growth for each item listed
# number only, unit % dropped from output

Solved entries (count: 2):
Quick one: growth of O=CC(Br)C(Br)c1ccccc1 (configuration not stated) ?
71.4

Quick one: growth of CC(=O)C1CCC2C3CC=C4CC(OC(=O)Cc5ccc(N(CCCl)CCCl)cc5)CCC4(C)C3CCC12C (configuration not stated) ?
83.2

Continuing:
Quick one: growth of "CO[C@@H]1[C@H](OC(=O)NC(=O)CCl)CC[C@]2(CO2)[C@H]1[C@@]1(C)O[C@@H]1CC=C(C)C" ?
58.1

Quick one: growth of "O=C(CCl)NCNC(=O)CCl" ?
105

Quick one: growth of Nc1ncnc2c1c(C(=O)NO)cn2C1OC(CO)C(O)C1O (configuration not stated) ?
7.07

Quick one: growth of "O1[As]2O[As]3O[As]1O[As](O2)O3" ?
-21.1

Quick one: growth of "N#CC(C#N)=Cc1ccc2ccccc2c1" ?
113

* * *

Tested on: SNB-75 CNS
measurement.protocol: NCI-60 one-dose screen, 48 h (100 = growth as untreated, 0 = no growth, -100 = all killed)
cond: 10 µM unless noted
Compounds without any hit were thinned out: in the full panel of roughly 83,000, 20% have a hit.
// reported growth for each item listed
# number only, unit % dropped from output

Solved entries (count: 6):
Quick one: growth of "CC(=O)[O][Hg][c]1nc2c(c(=O)n(C)c(=O)n2C)n1C" ?
77.8

Quick one: growth of "CC1(C)N=C(N)N=C(N)N1c1ccc(CCCCc2ccc(Cl)cc2S(=O)(=O)F)c(Cl)c1" ?
51.9

Quick one: growth of "CN(Cc1cccnc1)N=O" ?
85.1

Quick one: growth of "COC[CH2][Hg][C]#[C][Hg][CH2]COC" ?
83

Quick one: growth of CC12CCC(=O)C=C1C(O)CC1C2CCC2(C)C(O)CCC12 (stereo unspecified) ?
94.5

Quick one: growth of "CNC(=O)Oc1cc(C(C)C)ccc1Sc1ccc(C(C)C)cc1OC(=O)NC" ?
52.1

Continuing:
Quick one: growth of "CC[C@H](C)[C@H](NC(=O)Nc1ccccc1)C(=O)N(C)[C@H](C[C@@H](OC(C)=O)c1nc(C(=O)N[C@@H](Cc2ccccc2)C[C@H](C)C(=O)OC)cs1)C(C)C" ?
5.16

Quick one: growth of "Oc1ccc(O)c2c1C1(Cl)C(Cl)=C(Cl)C2(Cl)C1(Cl)Cl" ?
31.6

Quick one: growth of "CCOC(=O)c1cnc(SCc2ccc(Cl)c(Cl)c2)nc1N1CC1" ?
43.1

Quick one: growth of "CC(=O)Oc1ccc(Cl)cc1" ?
81.9

Quick one: growth of O=C(O)C1(Br)CC12c1ccccc1-c1ccccc12 (stereo unspecified) ?
104

Taken from PubChem BioAssay (NCI).
